Molecular target: GST-Nv-NF-kB (Cys allele) (Nematostella vectensis, UniProt E5G601 2-411)
Sequence: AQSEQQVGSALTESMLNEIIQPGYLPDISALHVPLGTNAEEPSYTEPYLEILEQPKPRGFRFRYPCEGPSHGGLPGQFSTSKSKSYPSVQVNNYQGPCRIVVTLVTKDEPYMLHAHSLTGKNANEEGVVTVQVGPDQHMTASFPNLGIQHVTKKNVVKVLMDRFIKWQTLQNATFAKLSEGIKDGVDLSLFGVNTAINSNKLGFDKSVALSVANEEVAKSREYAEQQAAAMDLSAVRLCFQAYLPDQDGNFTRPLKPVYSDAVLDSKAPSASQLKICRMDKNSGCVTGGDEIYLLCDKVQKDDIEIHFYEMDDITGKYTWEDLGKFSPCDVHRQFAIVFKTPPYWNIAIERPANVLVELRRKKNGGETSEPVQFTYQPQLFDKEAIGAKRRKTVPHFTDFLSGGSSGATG
Test: protein-binding microarray (PBM); PBM: ~300 nM protein, 6 mM HEPES pH 7.8, 80 mM KCl, 0.5 mM EDTA, 0.5 mM EGTA, 6% glycerol, 35 ng/ul poly-dIdC, 1% milk, 1 h, room temperature; Ap Aiptasia and Nv Nematostella (sea anemones) / Co Capsaspora / Aq Amphimedon (sponge) / Dm Drosophila / Hu human; RHD is the Rel homology domain; high values mean tight binding
Details: dsDNA, one strand shown
quantity name: binding signal (z-score)
Report the value in z-score with no unit label.

* CCGATTAACATCAGAATATTCCCTGATGTTAATCGGGTCTTGATTCGCTTGACGCTGCTG | 6.1
* CCGATTAACATCAAACAACCCCCTGATGTTAATCGGGTCTTGATTCGCTTGACGCTGCTG | 4.5
* CCGATTAACATCAGGAATTGCCCTGATGTTAATCGGGTCTTGATTCGCTTGACGCTGCTG | 2.2
* CCGATTAACATCAGGGACCCCCCTGATGTTAATCGGGTCTTGATTCGCTTGACGCTGCTG | 5.59
* CCGATTAACATCAGGGGGATAACTGATGTTAATCGGGTCTTGATTCGCTTGACGCTGCTG | 4.96
* CCGATTAACATCAAACTCCCCCCTGATGTTAATCGGGTCTTGATTCGCTTGACGCTGCTG | 6.49
* CCGATTAACATCAGGGAAAAGGATGATGTTAATCGGGTCTTGATTCGCTTGACGCTGCTG | 3.4
* CCGATTAACATCAGGTGTTTCCATGATGTTAATCGGGTCTTGATTCGCTTGACGCTGCTG | 1.06
* CCGATTAACATCAAAGAAACCCCTGATGTTAATCGGGTCTTGATTCGCTTGACGCTGCTG | 5.33
* CCGATTAACATCAGGGGGATTAATGATGTTAATCGGGTCTTGATTCGCTTGACGCTGCTG | 6.39

Sure, the documented binding signal for "CCGATTAACATCAGAAAACCCCCTGATGTTAATCGGGTCTTGATTCGCTTGACGCTGCTG" is 10

Sure, the documented binding signal for "CCGATTAACATCAGGAACTCCCATGATGTTAATCGGGTCTTGATTCGCTTGACGCTGCTG" is 2.53

Sure, the documented binding signal for "CCGATTAACATCACGGATTTCCCTGATGTTAATCGGGTCTTGATTCGCTTGACGCTGCTG" is 5.2

Sure, the documented binding signal for "CCGATTAACATCAGGGGATGTACTGATGTTAATCGGGTCTTGATTCGCTTGACGCTGCTG" is 4.79

Sure, the documented binding signal for "CCGATTAACATCAGATCCCCCCCTGATGTTAATCGGGTCTTGATTCGCTTGACGCTGCTG" is 5.56

Sure, the documented binding signal for "CCGATTAACATCAAATATTCCCCTGATGTTAATCGGGTCTTGATTCGCTTGACGCTGCTG" is 10.7

Sure, the documented binding signal for "CCGATTAACATCATTCCCGGAAATGATGTTAATCGGGTCTTGATTCGCTTGACGCTGCTG" is 3.35

Sure, the documented binding signal for "CCGATTAACATCAAAATTCCCTTTGATGTTAATCGGGTCTTGATTCGCTTGACGCTGCTG" is 8.11

FYI, the data here is from paper PMC5700166.
